All figures here come from patent US20250304526A1.

- testMethodNotes: Cyclic voltammetry (redox potentials, diffusion coefficients)
- Format: physicochemical
- protocolConditions: 1 mM in 0.2M TBAPF6/CH3CN

| chemSmiles | E^o′2 (second redox potential) |
| --- | --- |
| Cc1ccc(C(F)(F)F)cc1N(c1ccc(N(c2cc(C(F)(F)F)ccc2C)c2cc(C(F)(F)F)ccc2C)cc1)c1cc(C(F)(F)F)ccc1C | 0.91 V vs Cp2Fe^0/+ |
| COc1ccc(N(c2ccc(OC)cc2)c2ccc(-c3ccc(N(c4ccc(OC)cc4)c4ccc(OC)cc4)cc3)cc2)cc1 | 0.33 V vs Cp2Fe^0/+ |
| Cc1ccc(C(F)(F)F)cc1N(c1ccc(-c2ccc(N(c3cc(C(F)(F)F)ccc3C)c3cc(C(F)(F)F)ccc3C)cc2)cc1)c1cc(C(F)(F)F)ccc1C | 0.69 V vs Cp2Fe^0/+ |
| COc1ccc(N(c2ccc(OC)cc2)c2ccc(N(c3ccc(OC)cc3)c3ccc(OC)cc3)cc2)cc1 | 0.38 V vs Cp2Fe^0/+ |
